Each entry below carries its recorded Total Related Substances.
assay: Stability indicating HPLC assay and related substances on storage (Example 3); type: physicochemical; details: 1 month, 25° C./60% RH

Given the compound CN1CCC23c4c5ccc(O)c4OC2C(OC2OC(C(=O)O)C(O)C(O)C2O)C=CC3C1C5.CN1CCC23c4c5ccc(O)c4OC2C(OC2OC(C(=O)O)C(O)C(O)C2O)C=CC3C1C5.O=C(O)C=CC(=O)O (centres unmarked) [Morphine-6-glucuronide maleate] , what is its reported Total Related Substances?
1.39%

Likewise for Br.CN1CC[C@]23c4c5ccc(O)c4O[C@H]2[C@@H](O[C@@H]2O[C@H](C(=O)O)[C@@H](O)[C@H](O)[C@H]2O)C=C[C@H]3[C@H]1C5 [Morphine-6-glucuronide hydrobromide] ?
0.84%

====

Each entry below carries its recorded Known Related Substances HN75083.
assay: Stability indicating HPLC assay and related substances on storage (Example 3); assay type: physicochemical; conditions: 1 month, 25° C./60% RH
Just the number please, in %, no unit attached.

Br.CN1CC[C@]23c4c5ccc(O)c4O[C@H]2[C@@H](O[C@@H]2O[C@H](C(=O)O)[C@@H](O)[C@H](O)[C@H]2O)C=C[C@H]3[C@H]1C5 [Morphine-6-glucuronide hydrobromide]    0.03
CN1CCC23c4c5ccc(O)c4OC2C(OC2OC(C(=O)O)C(O)C(O)C2O)C=CC3C1C5.CN1CCC23c4c5ccc(O)c4OC2C(OC2OC(C(=O)O)C(O)C(O)C2O)C=CC3C1C5.O=S(=O)(O)O (stereo not shown) [Morphine-6-glucuronide sulphate]    0.27
CN1CC[C@]23c4c5ccc(O)c4O[C@H]2[C@@H](O[C@@H]2O[C@H](C(=O)O)[C@@H](O)[C@H](O)[C@H]2O)C=C[C@H]3[C@H]1C5.Cl [Morphine-6-glucuronide hydrochloride]    0.03

I am curious: what Known Related Substances HN75083 value has been reported for CN1CCC23c4c5ccc(O)c4OC2C(OC2OC(C(=O)O)C(O)C(O)C2O)C=CC3C1C5.O=P(O)(O)O (stereo not shown) [Morphine-6-glucuronide phosphate] ?
0.03

Moving on to CN1CCC23c4c5ccc(O)c4OC2C(OC2OC(C(=O)O)C(O)C(O)C2O)C=CC3C1C5.CN1CCC23c4c5ccc(O)c4OC2C(OC2OC(C(=O)O)C(O)C(O)C2O)C=CC3C1C5.O=C(O)C=CC(=O)O (stereo not shown) [Morphine-6-glucuronide fumarate]
0.03

Then this molecule: CN1CCC23c4c5ccc(O)c4OC2C(OC2OC(C(=O)O)C(O)C(O)C2O)C=CC3C1C5.CN1CCC23c4c5ccc(O)c4OC2C(OC2OC(C(=O)O)C(O)C(O)C2O)C=CC3C1C5.O=C(O)C=CC(=O)O (stereo not shown) [Morphine-6-glucuronide maleate]
0.05

Do the same for CN1CC[C@]23c4c5ccc(O)c4O[C@H]2[C@@H](O[C@@H]2O[C@H](C(=O)O)[C@@H](O)[C@H](O)[C@H]2O)C=C[C@H]3[C@H]1C5 [Morphine-6-glucuronide base, morphine-6-β-D-glucuronide] please
0.05

====

test: Stability indicating HPLC assay and related substances on storage (Example 3); type: physicochemical; conditions: 1 month, 60° C.
Could you please mark condition met for values of Known Related Substances Morphine below 0.3% and condition not met for values at or above it?

Use the examples below as a reference point.
CN1CCC23c4c5ccc(O)c4OC2C(OC2OC(C(=O)O)C(O)C(O)C2O)C=CC3C1C5.CN1CCC23c4c5ccc(O)c4OC2C(OC2OC(C(=O)O)C(O)C(O)C2O)C=CC3C1C5.O=C(O)C=CC(=O)O (centres unmarked) [Morphine-6-glucuronide fumarate]    condition met
CN1CCC23c4c5ccc(O)c4OC2C(OC2OC(C(=O)O)C(O)C(O)C2O)C=CC3C1C5.O=P(O)(O)O (centres unmarked) [Morphine-6-glucuronide phosphate]    condition met
CN1CCC23c4c5ccc(O)c4OC2C(OC2OC(C(=O)O)C(O)C(O)C2O)C=CC3C1C5.CN1CCC23c4c5ccc(O)c4OC2C(OC2OC(C(=O)O)C(O)C(O)C2O)C=CC3C1C5.O=S(=O)(O)O (centres unmarked) [Morphine-6-glucuronide sulphate]    condition not met
CN1CCC23c4c5ccc(O)c4OC2C(OC2OC(C(=O)O)C(O)C(O)C2O)C=CC3C1C5.CN1CCC23c4c5ccc(O)c4OC2C(OC2OC(C(=O)O)C(O)C(O)C2O)C=CC3C1C5.O=C(O)C=CC(=O)O (centres unmarked) [Morphine-6-glucuronide maleate]    condition not met

# ---- query compound ----
Please let me know if CN1CC[C@]23c4c5ccc(O)c4O[C@H]2[C@@H](O[C@@H]2O[C@H](C(=O)O)[C@@H](O)[C@H](O)[C@H]2O)C=C[C@H]3[C@H]1C5.Cl [Morphine-6-glucuronide hydrochloride] shows Known Related Substances Morphine below 0.3%.
condition not met

====

test: Stability indicating HPLC assay and related substances on storage (Example 3); assay type: physicochemical; conditions: 3 months, 25° C./60% RH
PROPERTY MEASURED: Known Related Substances HN75083 (%)
Value expressed in %; do not type the unit.

// Known Related Substances HN75083 lookup, key: CN1CCC23c4c5ccc(O)c4OC2C(OC2OC(C(=O)O)C(O)C(O)C2O)C=CC3C1C5.CN1CCC23c4c5ccc(O)c4OC2C(OC2OC(C(=O)O)C(O)C(O)C2O)C=CC3C1C5.O=S(=O)(O)O (stereo not drawn) [Morphine-6-glucuronide sulphate]
0.53

Another: CN1CCC23c4c5ccc(O)c4OC2C(OC2OC(C(=O)O)C(O)C(O)C2O)C=CC3C1C5.O=P(O)(O)O (stereo not drawn) [Morphine-6-glucuronide phosphate]
0.19

What about CN1CCC23c4c5ccc(O)c4OC2C(OC2OC(C(=O)O)C(O)C(O)C2O)C=CC3C1C5.CN1CCC23c4c5ccc(O)c4OC2C(OC2OC(C(=O)O)C(O)C(O)C2O)C=CC3C1C5.O=C(O)C=CC(=O)O (stereo not drawn) [Morphine-6-glucuronide fumarate] ?
0.10

====

Parameter: M6G Assay, Anhydrous basis. Scope: all listed entries.
experiment: Stability indicating HPLC assay and related substances on storage (Example 3); type: physicochemical; conditions: 3 months, 40° C./75% RH
Field: numeric (% w/w). Do not append units.

// returns reported M6G Assay, Anhydrous basis for input CN1CC[C@]23c4c5ccc(O)c4O[C@H]2[C@@H](O[C@@H]2O[C@H](C(=O)O)[C@@H](O)[C@H](O)[C@H]2O)C=C[C@H]3[C@H]1C5.Cl [Morphine-6-glucuronide hydrochloride]
61.41

Quick one: CN1CCC23c4c5ccc(O)c4OC2C(OC2OC(C(=O)O)C(O)C(O)C2O)C=CC3C1C5.O=P(O)(O)O (stereo not drawn) [Morphine-6-glucuronide phosphate]
92.40

Now this one: CN1CCC23c4c5ccc(O)c4OC2C(OC2OC(C(=O)O)C(O)C(O)C2O)C=CC3C1C5.CN1CCC23c4c5ccc(O)c4OC2C(OC2OC(C(=O)O)C(O)C(O)C2O)C=CC3C1C5.O=C(O)C=CC(=O)O (stereo not drawn) [Morphine-6-glucuronide fumarate]
79.38

====

assay: Stability indicating HPLC assay and related substances on storage (Example 3); type: physicochemical; settings: 3 months, 40° C./75% RH
PROPERTY MEASURED: Known Related Substances HN75076 (%)
// note: answer is a bare numeric in %

CN1CCC23c4c5ccc(O)c4OC2C(OC2OC(C(=O)O)C(O)C(O)C2O)C=CC3C1C5.CN1CCC23c4c5ccc(O)c4OC2C(OC2OC(C(=O)O)C(O)C(O)C2O)C=CC3C1C5.O=C(O)C=CC(=O)O (stereo not shown) [Morphine-6-glucuronide maleate]    0.40
CN1CC[C@]23c4c5ccc(O)c4O[C@H]2[C@@H](O[C@@H]2O[C@H](C(=O)O)[C@@H](O)[C@H](O)[C@H]2O)C=C[C@H]3[C@H]1C5.Cl [Morphine-6-glucuronide hydrochloride]    1.67
CN1CC[C@]23c4c5ccc(O)c4O[C@H]2[C@@H](O[C@@H]2O[C@H](C(=O)O)[C@@H](O)[C@H](O)[C@H]2O)C=C[C@H]3[C@H]1C5 [Morphine-6-glucuronide base, morphine-6-β-D-glucuronide]    0.01

We next turn to a different molecule, shown below.
What does the record list as Known Related Substances HN75076 for Br.CN1CC[C@]23c4c5ccc(O)c4O[C@H]2[C@@H](O[C@@H]2O[C@H](C(=O)O)[C@@H](O)[C@H](O)[C@H]2O)C=C[C@H]3[C@H]1C5 [Morphine-6-glucuronide hydrobromide] ?
0.02

====

assay: Colour of solution by visible spectrophotometry on storage (Example 3); type: physicochemical; conditions: 1 month, 25° C./60% RH; 5% w/v solution in water
Colour for assorted molecules
Numeric only. Scale: Abs@420 nm

Some solved cases for reference:
Br.CN1CC[C@]23c4c5ccc(O)c4O[C@H]2[C@@H](O[C@@H]2O[C@H](C(=O)O)[C@@H](O)[C@H](O)[C@H]2O)C=C[C@H]3[C@H]1C5 [Morphine-6-glucuronide hydrobromide]    0.073
CN1CCC23c4c5ccc(O)c4OC2C(OC2OC(C(=O)O)C(O)C(O)C2O)C=CC3C1C5.O=P(O)(O)O (stereo not shown) [Morphine-6-glucuronide phosphate]    0.053
CN1CC[C@]23c4c5ccc(O)c4O[C@H]2[C@@H](O[C@@H]2O[C@H](C(=O)O)[C@@H](O)[C@H](O)[C@H]2O)C=C[C@H]3[C@H]1C5.Cl [Morphine-6-glucuronide hydrochloride]    0.147
CN1CCC23c4c5ccc(O)c4OC2C(OC2OC(C(=O)O)C(O)C(O)C2O)C=CC3C1C5.CN1CCC23c4c5ccc(O)c4OC2C(OC2OC(C(=O)O)C(O)C(O)C2O)C=CC3C1C5.O=C(O)C=CC(=O)O (stereo not shown) [Morphine-6-glucuronide maleate]    0.084
CN1CCC23c4c5ccc(O)c4OC2C(OC2OC(C(=O)O)C(O)C(O)C2O)C=CC3C1C5.CN1CCC23c4c5ccc(O)c4OC2C(OC2OC(C(=O)O)C(O)C(O)C2O)C=CC3C1C5.O=C(O)C=CC(=O)O (stereo not shown) [Morphine-6-glucuronide fumarate]    0.034
CN1CC[C@]23c4c5ccc(O)c4O[C@H]2[C@@H](O[C@@H]2O[C@H](C(=O)O)[C@@H](O)[C@H](O)[C@H]2O)C=C[C@H]3[C@H]1C5 [Morphine-6-glucuronide base, morphine-6-β-D-glucuronide]    0.040

We now examine a further molecule.
If you can, please state the reported Colour value of CN1CCC23c4c5ccc(O)c4OC2C(OC2OC(C(=O)O)C(O)C(O)C2O)C=CC3C1C5.CN1CCC23c4c5ccc(O)c4OC2C(OC2OC(C(=O)O)C(O)C(O)C2O)C=CC3C1C5.O=S(=O)(O)O (stereo not shown) [Morphine-6-glucuronide sulphate] .
0.244
